Test Method Notes: MELAS cybrid and Rieske KO viability enhancers – cell-based, MELAS cybrids, Rieske KO mouse fibroblasts, CellTiter-Glo, primary screen (AID 1508586); note: test concentration not given here
Protocol Conditions: MELAS cybrid survival, low glucose, CellTiter-Glo 48 h; active compounds read high
The label depends only on z-score: Satisfied if it is at least -0.4, Not satisfied if it is smaller.

Check out these entries, answers already filled in.
In [3]: df
Out[3]:
                                   molecule    class_label
0  Cc1ccc(Cn2nccc2NC(=O)Cn2cc(-c3ccc(F)cc3)cn2)o1      Satisfied
1  Cc1csc(SCC(=O)N2CCc3c(cc(-c4csc5ccccc45)c(=O)n3C)C2)n1      Satisfied
2  CC1OC(Oc2c(-c3cc(O)c(O)c(O)c3)oc3cc(O)cc(O)c3c2=O)C(O)C(O)C1O (stereo not given)  Not satisfied

State whether the measured z-score reaches -0.4, counting equality as reaching it, for Cn1c(=O)c2c(nc(N3CCNCC3)n2Cc2ccccc2)n(C)c1=O Not satisfied

Reported z-score reaches at least -0.4 for N#Cc1cc(CN2CCC(Nc3ncnc4sc(Cl)cc34)CC2)ccc1F ? Not satisfied
